# measured-on: Leucine aminopeptidase (Plasmodium falciparum (isolate 3D7)) (UniProt Q8IL11)
# Sequence (Q8IL11 whole entry, looked up): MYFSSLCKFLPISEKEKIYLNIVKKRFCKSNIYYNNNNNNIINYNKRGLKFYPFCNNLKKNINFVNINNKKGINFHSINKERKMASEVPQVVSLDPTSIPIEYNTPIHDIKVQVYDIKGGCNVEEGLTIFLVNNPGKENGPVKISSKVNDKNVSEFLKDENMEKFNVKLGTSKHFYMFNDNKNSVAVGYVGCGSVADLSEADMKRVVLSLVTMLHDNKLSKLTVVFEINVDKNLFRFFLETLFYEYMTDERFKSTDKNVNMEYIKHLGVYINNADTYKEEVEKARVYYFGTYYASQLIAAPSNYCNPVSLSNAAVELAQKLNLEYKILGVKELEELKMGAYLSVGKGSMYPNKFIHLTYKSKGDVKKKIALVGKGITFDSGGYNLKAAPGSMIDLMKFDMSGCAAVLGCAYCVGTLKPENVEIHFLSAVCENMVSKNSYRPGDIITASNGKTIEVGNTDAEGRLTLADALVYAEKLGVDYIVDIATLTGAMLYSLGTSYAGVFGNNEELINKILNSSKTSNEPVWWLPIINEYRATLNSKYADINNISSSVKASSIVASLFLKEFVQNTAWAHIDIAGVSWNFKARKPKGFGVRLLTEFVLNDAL
# experiment: P. falciparum M17LAP inhibitors, primary screen, biochemical, fluorogenic H-Leu-NHMec substrate, 1536-well (AID 1619);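 note: plate controls were full reaction with DMSO carrier for no effect and no enzyme background for full effect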
# particulars: recombinant M17LAP, H-Leu-NHMec fluorogenic kinetic assay; at 30 µM; hits give high values
About 830 (0.38%) of roughly 220,000 compounds were called active. These entries were drawn from the full list. Results with a measured potency or affinity are listed apart.
Below, each entry is listed alongside its reported inhibition.
measured-quantity: inhibition (%)

                                    compound                               measured_on  endpoint_value
 0  O=C(NCCc1ccc(S(=O)(=O)N2CCCC2)cc1)c1cccs1  Leucine aminopeptidase (Plasmodium falciparum (isolate 3D7)) (UniProt Q8IL11)            22.4
 1                   CCCCN=C(C)C1=C(O)CSC1=O  Leucine aminopeptidase (Plasmodium falciparum (isolate 3D7)) (UniProt Q8IL11)            12.4
 2         CCOC(=O)CC(=O)CSc1nc(C)cc(C)c1C#N  Leucine aminopeptidase (Plasmodium falciparum (isolate 3D7)) (UniProt Q8IL11)           -4.47
 3  CCOC(=O)/C(=C\c1ccc([N+](=O)[O-])o1)NC(=O)c1ccccc1  Leucine aminopeptidase (Plasmodium falciparum (isolate 3D7)) (UniProt Q8IL11)           -88.3
 4               CSc1nc(Cc2ccccc2)nc2ccccc12  Leucine aminopeptidase (Plasmodium falciparum (isolate 3D7)) (UniProt Q8IL11)            0.06
 5  O=[N+]([O-])c1ccc(/C=C/c2ccc3cccc([N+](=O)[O-])c3n2)cc1  Leucine aminopeptidase (Plasmodium falciparum (isolate 3D7)) (UniProt Q8IL11)           -6.24
 6     Cn1c(SCC(=O)C(C)(C)C)nnc1-c1ccc(F)cc1  Leucine aminopeptidase (Plasmodium falciparum (isolate 3D7)) (UniProt Q8IL11)            0.55
 7                   CCN(CC)C(=O)c1ccc(N)cc1  Leucine aminopeptidase (Plasmodium falciparum (isolate 3D7)) (UniProt Q8IL11)             7.5
 8  CC(C)C(=O)Nc1ccc(NC(=S)NC(=O)c2cc3ccccc3o2)cc1  Leucine aminopeptidase (Plasmodium falciparum (isolate 3D7)) (UniProt Q8IL11)           -4.08
 9            COC(=O)N/N=C(\CCC(=O)O)c1cccs1  Leucine aminopeptidase (Plasmodium falciparum (isolate 3D7)) (UniProt Q8IL11)            6.69
10  O=C(CN1C(=O)CCSc2ccccc21)Nc1ccc2c(c1)OCO2  Leucine aminopeptidase (Plasmodium falciparum (isolate 3D7)) (UniProt Q8IL11)            48.6
11           CCNC(=O)C/C(C)=N/NC(=O)C1CCCCC1  Leucine aminopeptidase (Plasmodium falciparum (isolate 3D7)) (UniProt Q8IL11)            12.5
12  CC(C)c1nc(-c2c(N)n(C)c(=O)n(C)c2=O)sc1C(=O)C(C)(C)C  Leucine aminopeptidase (Plasmodium falciparum (isolate 3D7)) (UniProt Q8IL11)           -3.01
13  Cc1ccc(C)c(Cn2c(=O)n(CCCC(=O)NCc3ccco3)c(=O)c3ccccc32)c1  Leucine aminopeptidase (Plasmodium falciparum (isolate 3D7)) (UniProt Q8IL11)              10
14                 COc1cccc(-n2cn[nH]c2=S)c1  Leucine aminopeptidase (Plasmodium falciparum (isolate 3D7)) (UniProt Q8IL11)           -0.99
15  CCOc1ccccc1NC(=O)c1c(NC(=O)CCC(=O)O)sc2c1CCCCC2  Leucine aminopeptidase (Plasmodium falciparum (isolate 3D7)) (UniProt Q8IL11)            3.19
16  CCSC1=C(C#N)C(c2ccccc2Cl)C(C(=O)c2cccs2)C(O)(C(F)(F)F)N1 (stereo unspecified)  Leucine aminopeptidase (Plasmodium falciparum (isolate 3D7)) (UniProt Q8IL11)           -2.94
17  CCCn1c(=O)c(C(=O)N/N=C/c2ccc(F)cc2)c(O)c2ccccc21  Leucine aminopeptidase (Plasmodium falciparum (isolate 3D7)) (UniProt Q8IL11)           -4.04
18           CCCCOc1ncnc2c1[nH]c1ccc(OC)cc12  Leucine aminopeptidase (Plasmodium falciparum (isolate 3D7)) (UniProt Q8IL11)           -0.91
19  COc1ccc(C2C(C#N)=C(N)OC3=C2C(=O)CC(C)(C)C3)cc1 (stereo unspecified)  Leucine aminopeptidase (Plasmodium falciparum (isolate 3D7)) (UniProt Q8IL11)               7
20  O=C(CN1C(=O)c2cccc3cccc1c23)Nc1ccc2c(c1)OCO2  Leucine aminopeptidase (Plasmodium falciparum (isolate 3D7)) (UniProt Q8IL11)            31.3
21        COCCNC(=O)CN(c1ccccc1OC)S(C)(=O)=O  Leucine aminopeptidase (Plasmodium falciparum (isolate 3D7)) (UniProt Q8IL11)            6.69
22        CSc1ccc(/C=C/c2ccc3cccc(O)c3n2)cc1  Leucine aminopeptidase (Plasmodium falciparum (isolate 3D7)) (UniProt Q8IL11)            14.9
23        CCOC(=O)CSc1nc(C(C)(C)C)nc2ccccc12  Leucine aminopeptidase (Plasmodium falciparum (isolate 3D7)) (UniProt Q8IL11)            -0.8
24  CC1CC(=O)N(CC(=O)Nc2ccc3c(c2)OCCO3)c2ccccc2S1 (stereo unspecified)  Leucine aminopeptidase (Plasmodium falciparum (isolate 3D7)) (UniProt Q8IL11)            51.7
25  O=C(CCN1C(=O)c2ccccc2C1=O)Nc1ccc2c(c1)OCCO2  Leucine aminopeptidase (Plasmodium falciparum (isolate 3D7)) (UniProt Q8IL11)            10.7
26  COC(=O)c1ccc(C)c(NS(=O)(=O)c2ccc(C)c([N+](=O)[O-])c2)c1  Leucine aminopeptidase (Plasmodium falciparum (isolate 3D7)) (UniProt Q8IL11)             1.7
27  CC1CN(C(=S)c2cccc([N+](=O)[O-])c2)CC(C)O1 (stereo unspecified)  Leucine aminopeptidase (Plasmodium falciparum (isolate 3D7)) (UniProt Q8IL11)            4.78
28   O=C(c1cnn(C(=O)c2ccc(O)cc2)c1)c1ccccc1O  Leucine aminopeptidase (Plasmodium falciparum (isolate 3D7)) (UniProt Q8IL11)           -4.26
29  COc1cc(C2/C(=C(\O)c3cc(C)ccc3C)C(=O)C(=O)N2CCN(C)C)ccc1O (stereo unspecified)  Leucine aminopeptidase (Plasmodium falciparum (isolate 3D7)) (UniProt Q8IL11)           -5.88
30  COc1cc(/C=C/c2ccc3cccc([N+](=O)[O-])c3n2)ccc1OCC(=O)O  Leucine aminopeptidase (Plasmodium falciparum (isolate 3D7)) (UniProt Q8IL11)            20.7
31            CCCCCn1c(CNC(=O)COC)nc2ccccc21  Leucine aminopeptidase (Plasmodium falciparum (isolate 3D7)) (UniProt Q8IL11)           -1.06
32  COc1ccc(Nc2nc(C(=O)N3CCc4cc(OC)c(OC)cc4C3)cs2)cc1  Leucine aminopeptidase (Plasmodium falciparum (isolate 3D7)) (UniProt Q8IL11)           -3.32
33  CC1CC(=O)N(CC(=O)NCc2ccc3c(c2)OCO3)c2ccccc2S1 (stereo unspecified)  Leucine aminopeptidase (Plasmodium falciparum (isolate 3D7)) (UniProt Q8IL11)              24
34      COc1cc(CNC2CCCC2)cc(Cl)c1OCc1ccccc1F  Leucine aminopeptidase (Plasmodium falciparum (isolate 3D7)) (UniProt Q8IL11)           -3.97
35    C=CCn1c(-c2cccnc2Cl)nc2cc(Cl)c(Cl)cc21  Leucine aminopeptidase (Plasmodium falciparum (isolate 3D7)) (UniProt Q8IL11)           -5.48
36  CCOC(=O)c1ccc(NC(=O)c2c(NC(=O)CCC(=O)O)sc3c2CCCCC3)cc1  Leucine aminopeptidase (Plasmodium falciparum (isolate 3D7)) (UniProt Q8IL11)            4.02
37        COc1ccc(OCCCC(=O)Nc2cccc(SC)c2)cc1  Leucine aminopeptidase (Plasmodium falciparum (isolate 3D7)) (UniProt Q8IL11)            1.34
38          Cc1ccc(S(=O)(=O)c2ccc(NN)cc2)cc1  Leucine aminopeptidase (Plasmodium falciparum (isolate 3D7)) (UniProt Q8IL11)            20.8
39  Cc1cc(C)nc(NC(=O)C2c3ccccc3Oc3ccccc32)n1  Leucine aminopeptidase (Plasmodium falciparum (isolate 3D7)) (UniProt Q8IL11)            5.07
40  O=C(Cn1cnc2c(cnn2-c2ccccc2)c1=O)NC1CCCC1  Leucine aminopeptidase (Plasmodium falciparum (isolate 3D7)) (UniProt Q8IL11)           -1.27
41  Cc1c(NC(=O)CSc2nc3ccccc3s2)c(=O)n(-c2ccccc2)n1C  Leucine aminopeptidase (Plasmodium falciparum (isolate 3D7)) (UniProt Q8IL11)            14.2
42  COc1ccccc1NC(=O)c1c(NC(=O)CCC(=O)O)sc2c1CCCCC2  Leucine aminopeptidase (Plasmodium falciparum (isolate 3D7)) (UniProt Q8IL11)              12
43       CCNC(=S)Nc1ccc(Cl)c([N+](=O)[O-])c1  Leucine aminopeptidase (Plasmodium falciparum (isolate 3D7)) (UniProt Q8IL11)           -6.59
44  COc1ccc([N+](=O)[O-])cc1NC(=O)Cc1ccc(Cl)cc1  Leucine aminopeptidase (Plasmodium falciparum (isolate 3D7)) (UniProt Q8IL11)            8.59
45                    CCCCOCCCNC(=O)C1CCCCC1  Leucine aminopeptidase (Plasmodium falciparum (isolate 3D7)) (UniProt Q8IL11)           -2.13
